# credit: patent US20130058955A1

Biological target: T1, linear diubiquitin (Boston Biochem) (human, UniProt P0CG48 1-152)
T1 construct: Bought product
Test: western blot, 1 ug/mL IgG, LI-COR Odyssey quantification; Ub2 bands seen at 333 (faint) and 1000 ng
measured attribute: signal of the Ub2 band at 1000 ng linear diUb (number under the arrow)
One number for each entry.

Examples from the recorded data:
binder="1E3 IgG (antibody, V domains shown, also called parental 1E3) VH: EVQLVESGGGLVQPGGSLRLSCAASGFTFSNTYISWVRQAPGKGLEWVASITPSSGSTDYADSVKGRFTISADTSKNTAYLQMNSLRAEDTAVYYCARTWLLRWVMDYWGQGTLVTVSS VL: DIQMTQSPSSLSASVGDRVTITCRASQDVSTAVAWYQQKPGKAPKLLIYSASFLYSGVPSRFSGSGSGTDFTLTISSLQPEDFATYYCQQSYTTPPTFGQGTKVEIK" numeric_result=8.7
binder="1F11 IgG (antibody, V domains shown) VH: EVQLVESGGGLVQPGGSLRLSCAASGFTFSNTYISWVRQAPGKGLEWVASITPSSGSTDYADSVKGRFTISADTSKNTAYLQMNSLRAEDTAVYYCARTWLLRWVMDYWGQGTLVTVSS VL: DIQMTQSPSSLSASVGDRVTITCRASQDVSTAVAWYQQKPGKAPKLLIYSAKFLYSGVPSRFSGSGSGTDFTLTISSLQPEDFATYYCQQSYTTPPTFGQGTKVEIK" numeric_result=13.1

Here is another binder to look at.
[ask] Name the reported signal of the Ub2 band at 1000 ng linear diUb (number under the arrow) value associated with the binder 2H5 IgG (antibody, name in Kabat numbering, V domains shown) VH: EVQLVESGGGLVQPGGSLRLSCAASGFTFSNTYISWVRQAPGKGLEWVASITPSSGSTDYADSVKGRFTISADTSKNTAYLQMNSLRAEDTAVYYCARTWLLRWVMDYWGQGTLVTVSS VL: DIQMTQSPSSLSASVGDRVTITCRASQDVSTAVAWYQQKPGKAPKLLIYSASFLYSGVPSRFSGSGSGTDFTLTISSLQPEDFATYYCQQSYTNPPTFGQGTKVEIK
[reply] 10.4
